# experimental_target: alpha-enolase (ENO1) (Homo sapiens)
# Sequence (P06733 2-434): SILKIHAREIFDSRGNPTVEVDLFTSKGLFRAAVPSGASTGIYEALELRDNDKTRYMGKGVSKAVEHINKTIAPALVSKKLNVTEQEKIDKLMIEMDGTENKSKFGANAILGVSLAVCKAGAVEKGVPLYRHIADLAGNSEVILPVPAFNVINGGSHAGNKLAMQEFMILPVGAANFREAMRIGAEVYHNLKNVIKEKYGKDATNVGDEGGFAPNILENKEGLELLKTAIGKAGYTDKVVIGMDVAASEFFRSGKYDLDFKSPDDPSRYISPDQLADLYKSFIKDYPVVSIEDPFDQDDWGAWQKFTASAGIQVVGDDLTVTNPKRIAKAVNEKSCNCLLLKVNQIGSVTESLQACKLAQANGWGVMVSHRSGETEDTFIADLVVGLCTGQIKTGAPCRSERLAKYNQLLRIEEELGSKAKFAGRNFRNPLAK
# protocol_description: MST with NT-647-NHS labelled recombinant ENO1
experimental_endpoint: Kd (µM)
Numbers only here, please. The scale is µM.

# Kd lookup, item O=c1cc(-c2ccccc2)oc2cc(O)cc(O)c12 [compound 1, chrysin]
15
